# protocol text: Confirmation Concentration-Response Assay for Inhibitors of the Schistosoma mansoni Redox Cascade
# reported conditions: S. mansoni TGR/Prx2 coupled, NADPH fluorescence kinetics
Calls of active or inactive are those of the source. Calls follow the shape of the full dose curve.
Labels: active, inactive

[
  {
    "compound": "O=C1c2cccc3cccc(c23)N1Cc1ccccc1",
    "assigned label": "inactive"
  },
  {
    "compound": "COc1ccc2cc(CN(C[C@H]3COCCO3)S(=O)(=O)c3ccccc3)c(=O)[nH]c2c1",
    "assigned label": "inactive"
  },
  {
    "compound": "CCOc1ccc(OP2(=O)NC(=O)C=C(C)N2)cc1 (centres undefined)",
    "assigned label": "active"
  },
  {
    "compound": "CCOCN1C(=O)c2cccc3cccc1c23",
    "assigned label": "inactive"
  },
  {
    "compound": "O=P(Nc1ccccc1F)(c1ccccc1)c1nc2ccccc2s1 (centres undefined)",
    "assigned label": "active"
  },
  {
    "compound": "CC1=CC(=O)NP(=O)(Oc2ccc(Cl)cc2)N1 (centres undefined)",
    "assigned label": "active"
  },
  {
    "compound": "O=C(c1ccco1)c1no[n+]([O-])c1C(=O)c1ccco1",
    "assigned label": "active"
  },
  {
    "compound": "Cc1cc(C)c2cc(CN(CC3COCCO3)S(=O)(=O)c3ccc(Cl)cc3)c(=O)[nH]c2c1 (centres undefined)",
    "assigned label": "inactive"
  },
  {
    "compound": "COC(=O)C(C(=O)OC)c1cc(Br)c2noc3c2c1C(=O)c1ccccc1-3",
    "assigned label": "active"
  }
]
